B1: CDC34 (parent)
chain: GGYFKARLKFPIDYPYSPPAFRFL

Variants of: B1
Experiment: protein stability index of a GFP-peptide fusion (GPS, HEK-293T) (PSI 1-6); higher = more stable;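 also: lentivirally expressed fusions sorted by FACS into six bins by GFP to DsRed ratio, PSI derived from sequencing read proportions per bin multiplied by bin number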
Details: c terminus: a fixed tail appended
REPORTED_ENDPOINT: protein stability index
Give the figure by itself; no unit, no explanation.

Study these solved cases before continuing.
G2I    3.05
Y14D    3.03
D13I    3.04
F10V    2.97
F21A    2.57
F23Y    1.26
K9G    2.29
S17I    3.04
P11R    2.99
G1I    3.18

Complete the entry with protein stability index for R22G
2.78

Complete the entry with protein stability index for F10Q
1.76

Complete the entry with protein stability index for G2M
2.92

Complete the entry with protein stability index for Y16R
2.6

Complete the entry with protein stability index for D13K
3.03

Complete the entry with protein stability index for Y16D
1.57

Complete the entry with protein stability index for D13M
1.68

Complete the entry with protein stability index for A6E
2.33

Complete the entry with protein stability index for R7I
2.78

Complete the entry with protein stability index for L24A
3.55

Complete the entry with protein stability index for L8Q
2.35

Complete the entry with protein stability index for A20C
1.71

Complete the entry with protein stability index for D13S
2.34

Complete the entry with protein stability index for F4Q
1.75

Complete the entry with protein stability index for P11C
3.95

Complete the entry with protein stability index for D13R
3.03

Complete the entry with protein stability index for P15S
3.76

Complete the entry with protein stability index for Y14G
1.88
